conditions: buffer; pH 7.4; 200.0 µM
RESULT_TYPE: log10 solubility kinetic (log10 of the value in µg/mL)
Remember, log10 of solubility kinetic, in µg/mL.

Task: Report log10 solubility kinetic for COCCn1c(C)cc(C(=O)COC(=O)/C=C/c2ccc(OC)cc2OC)c1C
Output: 0.43

Task: Report log10 solubility kinetic for N#C/C(=C\c1c(F)cccc1Cl)S(=O)(=O)c1ccccn1
Output: 1.56

Task: Report log10 solubility kinetic for O=C(NCCc1ccccc1)c1cccc(N2C(=O)C3CC=CCC3C2=O)c1 (stereo not drawn)
Output: 1.67

* * *

settings: buffer; pH 7.4; 200.0 µM
RESULT_TYPE: solubility kinetic (µg/mL)
API: value field is a number in µg/mL; no unit string.

Worked cases, answers included:
1. Cc1ccc(C)c(C(C)NC(=O)c2ccncc2)c1 (configuration not stated) :: 36
2. CC(C)c1ccccc1NC(=S)NC(=O)C1CCCCC1 :: 0.9

Task: Report solubility kinetic for O=C(c1ccc(NS(=O)(=O)c2cccc(F)c2)cc1)N1CCCC1
Output: 51.2

Task: Report solubility kinetic for Cc1ccc(C(C)NC(=S)NCc2ccc(F)cc2)cc1C (configuration not stated)
Output: 6.2

Task: Report solubility kinetic for CN1CCN(S(=O)(=O)c2ccc(NC(=O)c3ccc([N+](=O)[O-])cc3)cc2)CC1
Output: 4.9

* * *

Measured solubility kinetic accompanies every entry in the list below.
conditions: buffer; pH 7.4; 200.0 µM
API: value field is a number in µg/mL; no unit string.

Worked cases, answers included:
1. O=C(COC(=O)/C=C/c1ccc([N+](=O)[O-])cc1)NCC1CCCCC1 :: 1.5
2. O=c1cc(CN2CCN(S(=O)(=O)c3cccc(Cl)c3)CC2)c2ccc(O)cc2o1 :: 13.3

Here is the next item to consider.
Task: Report solubility kinetic for CCOC(=O)C1(Cc2ccc(Cl)cc2)CCN(C2CCC2)CC1
Output: 44

* * *

settings: buffer; pH 7.4; 200.0 µM
RESULT_TYPE: solubility kinetic (µg/mL)
API: value field is a number in µg/mL; no unit string.

1. O=c1cc(O)c2ccccc2n1Cc1ccccc1 :: 31.9
2. O=c1o[nH]c(-c2ccccc2)c1-c1ccccc1 :: 35

Here is the next item to consider.
Task: Report solubility kinetic for CCOC(=O)c1[nH]cnc1C(=O)Nc1cccc(OC)c1
Output: 4.4

* * *

settings: buffer; pH 7.4; 200.0 µM
RESULT_TYPE: solubility kinetic

Worked cases, answers included:
1) Cc1ccc(C(=O)NCN2CCN(c3ccc(F)cc3)CC2)cc1 :: > 49.1 µg/mL
2) O=C(CSc1nc(C(F)(F)F)cc(=O)[nH]1)N1CCCC1 :: > 46.1 µg/mL
3) COC1CCCCC1NCCc1ccccc1.O=C(O)C(=O)O (stereo unspecified) :: > 48.5 µg/mL
4) CCCN(CC1CC1)C(=S)NC(=O)C1CC1 :: > 36.1 µg/mL
5) O=S(=O)(c1ccc(Cl)cc1)n1cnc2ccccc21 :: > 43.9 µg/mL

Task: Report solubility kinetic for O=C1N=c2ccccc2=C1c1sc(=O)[nH]c1O
Output: > 36.9 µg/mL

* * *

details: buffer; pH 7.4; 200.0 µM
Measured solubility kinetic accompanies every entry in the list below.
API: value field is a number in mg/mL; no unit string.

1. COc1ccccc1N1CCN(C(=O)c2cc3ccccc3[nH]2)CC1 :: 0.0027
2. O=C(Nc1ccc2c(c1)CCC2)c1cccs1 :: 0.0308
3. COc1cccc(C(=O)OCC(=O)N2CCc3ccccc3C2)c1OC :: 0.0117
4. Cc1cccc(NC(=O)NC2CC3CCC(C2)N3Cc2ccco2)c1 (configuration not stated) :: 0.0111
5. CCN(C(=S)Nc1cccnc1)c1ccccc1 :: 0.0363

Task: Report solubility kinetic for O=C(COc1ccccc1[N+](=O)[O-])Nc1cccc(S(=O)(=O)N2CCCC2)c1
Output: 0.0035

Task: Report solubility kinetic for O=C(NC(=S)NCc1ccc(Cl)cc1Cl)c1ccco1
Output: 0.0014

* * *

settings: buffer; pH 7.4; 200.0 µM
Measured solubility kinetic accompanies every entry in the list below.
API: value field is a number in µg/mL; no unit string.

1. Cc1c(C(=O)OCC(=O)Nc2ccc(C(=O)N(C)C)cc2)oc2ccccc12 :: 6.6

Task: Report solubility kinetic for CC(C)c1ccccc1NC1=NCCCS1
Output: 35

Task: Report solubility kinetic for CCOC(=O)c1cnc2ccc(C)cc2c1N(C)Cc1ccccc1
Output: 3.8

Task: Report solubility kinetic for CCOC(=O)C1C(c2ccc(Cl)cc2)NC(=S)NC1(O)C(F)(F)F (configuration not stated)
Output: 37.8

Task: Report solubility kinetic for Oc1ccc(-c2nccc(-c3ccc(F)cc3)n2)cc1
Output: 2.1

* * *

settings: buffer; pH 7.4; 200.0 µM
Measured solubility kinetic accompanies every entry in the list below.
API: value field is a number in µg/mL; no unit string.

Worked cases, answers included:
1) Cn1c(=O)n(C)c2cc(NC(=O)COc3ccc(F)cc3)ccc21 :: 40.7
2) Cc1ccccc1-c1noc(C(C)NC(=O)c2ccco2)n1 (configuration not stated) :: 37.5
3) CCC(=O)OCCNc1cc(SCCC(=O)OC)c2nonc2c1[N+](=O)[O-] :: 54.9
4) O=C(NCCc1ccccc1F)C1CC(=O)N(c2ccccc2)C1 (configuration not stated) :: 47.8

Here is the next item to consider.
Task: Report solubility kinetic for COc1ccc(C)cc1Nc1ccc(C(=O)O)cc1[N+](=O)[O-]
Output: 44.3

* * *

conditions: buffer; pH 7.4; 200.0 µM
Measured solubility kinetic accompanies every entry in the list below.
API: value field is a number in µg/mL; no unit string.

Worked cases, answers included:
1. O=C(COC(=O)COc1ccccc1)NCCC1=CCCCC1 :: 38.5
2. O=C(NC1CC1)C1CC(=O)N(c2ccc(F)cc2)C1 (configuration not stated) :: 37.6
3. Cc1ccc(CNC(=O)COC(=O)c2cc(C)oc2C)cc1 :: 4.4
4. CC(=O)c1ccc(OCCCC(=O)Nc2cccc(S(=O)(=O)N3CCCCCC3)c2)cc1 :: 10.4

Task: Report solubility kinetic for Cc1cc(C)nc(N(C#N)Cc2ccc(Cl)cc2)n1
Output: 21.7

* * *

conditions: buffer; pH 7.4; 200.0 µM
RESULT_TYPE: log10 solubility kinetic (log10 of the value in µg/mL)
Remember, log10 of solubility kinetic, in µg/mL.

1. CCCS(=O)(=O)N1CCCC(C(=O)NCCc2ccccc2)C1 (stereo not drawn) :: 1.69

Task: Report log10 solubility kinetic for O=C(c1ccc(=O)oc1)N1CCC(C(O)(c2ccccc2)c2ccccc2)CC1
Output: 1.76

Task: Report log10 solubility kinetic for CCOc1ccc(-c2nc(N)ncc2Oc2ccc(OC)cc2)c(O)c1
Output: 0.00

Task: Report log10 solubility kinetic for CNc1nc(N)c(C(=O)Nc2cc(C)on2)s1
Output: 1.55

Task: Report log10 solubility kinetic for Cc1ccc(NC2c3ccccc3C(=O)N2c2cccnc2)cc1 (stereo not drawn)
Output: 1.61

Task: Report log10 solubility kinetic for Cc1ccc(CC(=O)N2CCN(C(=O)C3CCCO3)CC2)cc1 (stereo not drawn)
Output: 1.64

Task: Report log10 solubility kinetic for N#CC1=C(N)NC(=S)C(C(N)=O)C1c1ccc(Cl)cc1Cl (stereo not drawn)
Output: 1.07

* * *

conditions: buffer; pH 7.4; 200.0 µM
Each entry gets N if its solubility kinetic stays under 20 µg/mL, and Y if its solubility kinetic is 20 µg/mL or above.

Solved cases below.
1. COc1ccc(C(C)NC(=O)Nc2ccc(C(C)=O)cc2)cc1OC (stereo not drawn) :: Y
2. COc1ccc2ccccc2c1CN(C)Cc1ccccc1.O=C(O)C(=O)O :: Y
3. COC(=O)[C@H](C)NC(=O)NCCC1=CCCCC1 :: Y

Note: attention shifts to another entry.
Task: Dear colleague, could you confirm whether Cc1ccc(-c2c[n+](CC(=O)Nc3ccc(C)cc3C)c3n2CCC3)cc1.[Cl-] has solubility kinetic at or above 20 µg/mL?
Output: Y

* * *

settings: buffer; pH 7.4; 200.0 µM
RESULT_TYPE: log10 solubility kinetic (log10 of the value in µg/mL)
Remember, log10 of solubility kinetic, in µg/mL.

Worked cases, answers included:
1. O=C(COc1cccnc1[N+](=O)[O-])Nc1cccc(Br)c1 :: 0.43
2. Cc1ccc(C(CC(=O)NCCCN(C)C)c2ccc(OC(C)C)cc2)cc1 (stereo unspecified) :: 1.72
3. Fc1ccc(CCNC(=S)Nc2ccc(F)c(Cl)c2)cc1 :: 1.38
4. O=C(CC1NCCN(Cc2ccccc2)C1=O)Nc1ccccc1 (stereo unspecified) :: 1.62

Here is the next item to consider.
Task: Report log10 solubility kinetic for NC(=O)C1CCN(C(=O)CSc2nc(O)cc(=O)[nH]2)CC1
Output: 1.49
